Documented MIC90 across a set of molecules
- Tested on: Staphylococcus
- PROCEDURE TEXT: Antibacterial activity against 10^4 to 10^5 CFU methicillin-resistant coagulase-negative Staphylococcus after 18 hrs by CLSI 2-fold agar dilution method
- Type: functional
Just the number in µg/mL, nothing appended.

[
  {
    "SMILES STRUCTURE": "CN[C@H](CC(C)C)C(=O)N[C@H]1C(=O)N[C@@H](CC(N)=O)C(=O)N[C@H]2C(=O)N[C@H]3C(=O)N[C@H](C(=O)N[C@H](C(=O)O)c4cc(O)cc(O)c4-c4cc3ccc4O)[C@H](O)c3ccc(c(Cl)c3)Oc3cc2cc(c3O[C@@H]2O[C@H](CO)[C@@H](O)[C@H](O)[C@H]2O[C@H]2C[C@](C)(N)[C@H](O)[C@H](C)O2)Oc2ccc(cc2Cl)[C@H]1O",
    "TGT": "Staphylococcus",
    "READOUT UNIT": "µg/mL",
    "MIC90": 2
  }
]

Let us examine a further case.
Please fill in: MIC90 reported for `CN1CCN(c2ccc(N3C[C@H](CO)OC3=O)cc2F)C=N1` = 0.5
